Data provenance: the supplement of paper PMC9112550

Test system: Escherichia coli TOP10
protocol notes: shrunken log2 fold change of peptide-encoding DNA abundance (4.5 h post-induction vs induction); higher = less antimicrobial activity (less host growth inhibition)
test context: time post-induction: 4.5 h; library: site-saturation at positions 5, 18, 19, 20
observable: shrunken log2 fold change
Answer field: number only, no words.

Fill in shrunken log2 fold change for record RRIRGRPPRLPRPRPRPPKTPRP
1.15

Fill in shrunken log2 fold change for record RRIRRRPPRLPRPRPRPYWMPRP
-0.205

Fill in shrunken log2 fold change for record RRIRYRPPRLPRPRPRPDQFPRP
-0.435

Fill in shrunken log2 fold change for record RRIRQRPPRLPRPRPRPMTRPRP
0.0107

Fill in shrunken log2 fold change for record RRIRLRPPRLPRPRPRPKEIPRP
-0.00121

Fill in shrunken log2 fold change for record RRIRDRPPRLPRPRPRPLAVPRP
0.887

Fill in shrunken log2 fold change for record RRIRHRPPRLPRPRPRPQHDPRP
-0.281

Fill in shrunken log2 fold change for record RRIRHRPPRLPRPRPRPTHYPRP
-0.26

Fill in shrunken log2 fold change for record RRIRARPPRLPRPRPRPYTRPRP
-0.124

###

System: Escherichia coli TOP10;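 further: peptides expressed intracellularly from a pBAD plasmid library in pooled LB shake-flask culture, induced with 0.3% L-arabinose, DNA abundance read by NGS, three biological replicates, DESeq2 with apeglm shrinkage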
protocol notes: shrunken log2 fold change of peptide-encoding DNA abundance (4.5 h post-induction vs induction); higher = less antimicrobial activity (less host growth inhibition)
test context: time post-induction: 4.5 h; library: site-saturation at positions 5, 18, 19, 20
# thresholds on shrunken log2 fold change define classes: bucket A: < -0.1; bucket B: ≥ -0.1 and < 0.04; bucket C: ≥ 0.04

Returns: class label. Input: RRIRERPPRLPRPRPRPSWPPRP
bucket B

Returns: class label. Input: RRIRHRPPRLPRPRPRPNSFPRP
bucket B

Returns: class label. Input: RRIRNRPPRLPRPRPRPGMWPRP
bucket C

Returns: class label. Input: RRIRSRPPRLPRPRPRPMDHPRP
bucket A

Returns: class label. Input: RRIRLRPPRLPRPRPRPTRAPRP
bucket C

Returns: class label. Input: RRIRARPPRLPRPRPRPNMRPRP
bucket C

Returns: class label. Input: RRIRWRPPRLPRPRPRPERTPRP
bucket C

Returns: class label. Input: RRIRLRPPRLPRPRPRPTCQPRP
bucket C

Returns: class label. Input: RRIRLRPPRLPRPRPRPHLKPRP
bucket A

Returns: class label. Input: RRIRNRPPRLPRPRPRPMCLPRP
bucket B

Returns: class label. Input: RRIRSRPPRLPRPRPRPGLWPRP
bucket C

Returns: class label. Input: RRIRQRPPRLPRPRPRPITQPRP
bucket A

Returns: class label. Input: RRIRCRPPRLPRPRPRPIWKPRP
bucket C

Returns: class label. Input: RRIRDRPPRLPRPRPRPNCEPRP
bucket C

Returns: class label. Input: RRIRWRPPRLPRPRPRPQGHPRP
bucket C

Returns: class label. Input: RRIRARPPRLPRPRPRPSDPPRP
bucket B

Returns: class label. Input: RRIRYRPPRLPRPRPRPKLLPRP
bucket A

Returns: class label. Input: RRIRERPPRLPRPRPRPKSTPRP
bucket A

Returns: class label. Input: RRIRHRPPRLPRPRPRPRDQPRP
bucket B

Returns: class label. Input: RRIRQRPPRLPRPRPRPKTAPRP
bucket B

Returns: class label. Input: RRIRFRPPRLPRPRPRPRELPRP
bucket C

Returns: class label. Input: RRIRQRPPRLPRPRPRPQSAPRP
bucket B

Returns: class label. Input: RRIRIRPPRLPRPRPRPNPVPRP
bucket C

Returns: class label. Input: RRIRKRPPRLPRPRPRPRFSPRP
bucket C

Returns: class label. Input: RRIRERPPRLPRPRPRPFPEPRP
bucket A

Returns: class label. Input: RRIRQRPPRLPRPRPRPYRQPRP
bucket B

Returns: class label. Input: RRIRCRPPRLPRPRPRPRNVPRP
bucket A

Returns: class label. Input: RRIRHRPPRLPRPRPRPVWCPRP
bucket B

Returns: class label. Input: RRIRSRPPRLPRPRPRPDQMPRP
bucket C

Returns: class label. Input: RRIRDRPPRLPRPRPRPVLYPRP
bucket A

Returns: class label. Input: RRIRFRPPRLPRPRPRPNYWPRP
bucket A

Returns: class label. Input: RRIRFRPPRLPRPRPRPMMNPRP
bucket A

Returns: class label. Input: RRIRCRPPRLPRPRPRPISQPRP
bucket A

Returns: class label. Input: RRIRPRPPRLPRPRPRPWIPPRP
bucket A

Returns: class label. Input: RRIRCRPPRLPRPRPRPEDVPRP
bucket B

Returns: class label. Input: RRIRRRPPRLPRPRPRPHKKPRP
bucket C

Returns: class label. Input: RRIRIRPPRLPRPRPRPAASPRP
bucket C

Returns: class label. Input: RRIRKRPPRLPRPRPRPLPDPRP
bucket A

Returns: class label. Input: RRIRLRPPRLPRPRPRPPMPPRP
bucket C

Returns: class label. Input: RRIRFRPPRLPRPRPRPFIIPRP
bucket A

Returns: class label. Input: RRIRVRPPRLPRPRPRPPDEPRP
bucket C

Returns: class label. Input: RRIRNRPPRLPRPRPRPCNCPRP
bucket B

Returns: class label. Input: RRIRNRPPRLPRPRPRPEYLPRP
bucket B

Returns: class label. Input: RRIRCRPPRLPRPRPRPVKSPRP
bucket C

Returns: class label. Input: RRIRSRPPRLPRPRPRPVYWPRP
bucket A

Returns: class label. Input: RRIRVRPPRLPRPRPRPNKDPRP
bucket A

Returns: class label. Input: RRIRMRPPRLPRPRPRPNKLPRP
bucket A

Returns: class label. Input: RRIRKRPPRLPRPRPRPQSMPRP
bucket B

Returns: class label. Input: RRIRKRPPRLPRPRPRPPMAPRP
bucket C

Returns: class label. Input: RRIRGRPPRLPRPRPRPSKYPRP
bucket B

Returns: class label. Input: RRIRFRPPRLPRPRPRPGMYPRP
bucket B

Returns: class label. Input: RRIRKRPPRLPRPRPRPHNDPRP
bucket B

Returns: class label. Input: RRIRCRPPRLPRPRPRPIQNPRP
bucket A

Returns: class label. Input: RRIRQRPPRLPRPRPRPMCVPRP
bucket A

Returns: class label. Input: RRIRWRPPRLPRPRPRPFHMPRP
bucket A

Returns: class label. Input: RRIRWRPPRLPRPRPRPTHGPRP
bucket B

Returns: class label. Input: RRIRWRPPRLPRPRPRPRSCPRP
bucket C

Returns: class label. Input: RRIRPRPPRLPRPRPRPNHCPRP
bucket A
